Assay: Single dose PK in healthy subjects (Cohorts 1, 2, S1 and S2), plasma
Assay type: in vivo, human
Settings: human, plasma, intravenous, 240 mg; 6 hr; read-out: Plasma concentration, Minimum
Source text: […]
PARAMETER: concentration at 6 hr (ng/mL)
Express your answer in ng/mL, writing the number without its unit.

Using the record for COC(=O)N1CCC[C@H](NS(C)(=O)=O)[C@@H]1CO[C@H]1CC[C@@H](c2ccccc2)CC1 , report its concentration at 6 hr.
335

###

Experiment: Single dose PK in healthy subjects (Cohorts 1, 2, S1 and S2), plasma
Assay type: in vivo, human
Conditions: human, plasma, iv, 180 mg, 180 mg single IV infusion, healthy subjects; read-out: Vz Median
PARAMETER: Vd (L)
Express your answer in L, writing the number without its unit.

Using the record for COC(=O)N1CCC[C@H](NS(C)(=O)=O)[C@@H]1CO[C@H]1CC[C@@H](c2ccccc2)CC1 , report its Vd.
268
